Ref: the supplement of paper PMC11061612

test system: MS751 (Cervical Carcinoma); experiment: Bliss excess, mean over the matrix (fraction); higher = more synergy
Measured Parameter: Bliss excess

Compound | Measured Parameter | Reported Result
COc1cccc(OCCCN)c1-c1cc(Nc2cnc(C#N)cn2)n[nH]1 [Prexasertib] + Cc1cc2ncnn2cc1Nc1ncc2c(n1)n(C1CCOCC1)c(=O)n2C [AZD7648] (first compound max 1 µM, 7x7, partner max 10 µM) | Bliss excess | -0.0156
CC1(C)CCC(CN2CCN(c3ccc(C(=O)NS(=O)(=O)c4ccc(NCC5CCOCC5)c([N+](=O)[O-])c4)c(Oc4cnc5[nH]ccc5c4)c3)CC2)=C(c2ccc(Cl)cc2)C1 [Venetoclax] + C=CCn1c(=O)c2cnc(Nc3ccc(N4CCN(C)CC4)cc3)nc2n1-c1cccc(C(C)(C)O)n1 [AZD1775] (first compound max 1 µM, partner max 1 µM) | Bliss excess | 0.0125

* * *

test system: DiFi (Colorectal Carcinoma); test: Bliss excess, mean over the matrix (fraction); higher = more synergy
We begin with a simple list: items and their reported Bliss excess.
Measured Parameter: Bliss excess

Molecule | Reported Result
C[C@@H](c1ccc2nccn2c1)n1nnc2ncc(-c3cnn(C)c3)nc21 [Savolitinib] + CC1(C)CCC(CN2CCN(c3ccc(C(=O)NS(=O)(=O)c4ccc(NCC5CCOCC5)c([N+](=O)[O-])c4)c(Oc4cnc5[nH]ccc5c4)c3)CC2)=C(c2ccc(Cl)cc2)C1 [Venetoclax] (first compound max 1 µM, 7x7, partner max 1 µM) | -0.0468
COc1cccc(OCCCN)c1-c1cc(Nc2cnc(C#N)cn2)n[nH]1 [Prexasertib] + O=C(c1cc(Cc2n[nH]c(=O)c3ccccc23)ccc1F)N1CCN(C(=O)C2CC2)CC1 [Olaparib] (first compound max 1 µM, 7x7, partner max 10 µM) | -0.0265
CC1(C)CCC(CN2CCN(c3ccc(C(=O)NS(=O)(=O)c4ccc(NCC5CCOCC5)c([N+](=O)[O-])c4)c(Oc4cnc5[nH]ccc5c4)c3)CC2)=C(c2ccc(Cl)cc2)C1 [Venetoclax] + C1CN(CCC1(C(=O)N[C@@H](CCO)C2=CC=C(C=C2)Cl)N)C3=NC=NC4=C3C=CN4 [Capivasertib] (first compound max 1 µM, 7x7, partner max 3 µM) | -0.022
CN(CCO)CC[C@H](CSc1ccccc1)Nc1ccc(S(=O)(=O)NC(=O)c2ccc(N3CCC([C@@H](O)c4ccccc4-c4ccc(Cl)cc4)CC3)cc2)cc1S(=O)(=O)C(F)(F)F [AZD4320] + Cc1cc2ncnn2cc1Nc1ncc2c(n1)n(C1CCOCC1)c(=O)n2C [AZD7648] (first compound max 1 µM, 7x7, partner max 10 µM) | -0.0203
Cc1c2c(nn1C)CSCc1cc(n(C)n1)CSc1cc(c3ccccc3c1)OCCCc1c(C(=O)O)n(C)c3c-2c(Cl)ccc13 [AZD5991] + C1CN(CCC1(C(=O)N[C@@H](CCO)C2=CC=C(C=C2)Cl)N)C3=NC=NC4=C3C=CN4 [Capivasertib] (first compound max 1 µM, 7x7, partner max 3 µM) | 0.0384
CN(CCO)CC[C@H](CSc1ccccc1)Nc1ccc(S(=O)(=O)NC(=O)c2ccc(N3CCC([C@@H](O)c4ccccc4-c4ccc(Cl)cc4)CC3)cc2)cc1S(=O)(=O)C(F)(F)F [AZD4320] + Cn1cnc2c(F)c(Nc3ccc(Br)cc3Cl)c(C(=O)NOCCO)cc21 [Selumetinib] (first compound max 1 µM, 7x7, partner max 3 µM) | 0.0838

* * *

tested on: BL-41 (Burkitt's Lymphoma); assay: Bliss excess, mean over the matrix (fraction); higher = more synergy

Compound | Bliss excess
N#Cc1cnc(Nc2cc(NC[C@H]3CNCCO3)c(C(F)(F)F)cn2)cn1 [SRA737] + CCc1c2c(nc3ccc(O)cc13)-c1cc3c(c(=O)n1C2)COC(=O)[C@]3(O)CC [SN-38] (first compound max 10 µM, 7x7, partner max 0.3 µM) | -0.0272
COc1cccc(OCCCN)c1-c1cc(Nc2cnc(C#N)cn2)n[nH]1 [Prexasertib] + C[C@@H]1COCCN1C2=NC(=NC(=C2)C3(CC3)[S@](=N)(=O)C)C4=C5C=CNC5=NC=C4 [AZD6738] (first compound max 1 µM, 7x7, partner max 10 µM) | -0.0066
COc1cccc(OCCCN)c1-c1cc(Nc2cnc(C#N)cn2)n[nH]1 [Prexasertib] + O=C(c1cc(Cc2n[nH]c(=O)c3ccccc23)ccc1F)N1CCN(C(=O)C2CC2)CC1 [Olaparib] (first compound max 1 µM, 7x7, partner max 10 µM) | -0.0346
NC1(C(=O)N[C@@H](CCO)c2ccc(Cl)cc2)CCN(c2ncnc3[nH]ccc23)CC1 [Capivasertib] + CCN(CCO)CCCOc1ccc2c(Nc3cc(CC(=O)Nc4cccc(F)c4)[nH]n3)ncnc2c1 [AZD2811] (first compound max 10 µM, 7x7, partner max 1 µM) | -0.123
CC1(C)CCC(CN2CCN(c3ccc(C(=O)NS(=O)(=O)c4ccc(NCC5CCOCC5)c([N+](=O)[O-])c4)c(Oc4cnc5[nH]ccc5c4)c3)CC2)=C(c2ccc(Cl)cc2)C1 [Venetoclax] + CCN(CCO)CCCOc1ccc2c(Nc3cc(CC(=O)Nc4cccc(F)c4)[nH]n3)ncnc2c1 [AZD2811] (first compound max 1 µM, 7x7, partner max 1 µM) | -0.137
CN(CCO)CC[C@H](CSc1ccccc1)Nc1ccc(S(=O)(=O)NC(=O)c2ccc(N3CCC([C@@H](O)c4ccccc4-c4ccc(Cl)cc4)CC3)cc2)cc1S(=O)(=O)C(F)(F)F [AZD4320] + C[C@@H]1COCCN1C2=NC(=NC(=C2)C3(CC3)[S@](=N)(=O)C)C4=C5C=CNC5=NC=C4 [AZD6738] (first compound max 1 µM, 7x7, partner max 10 µM) | -0.0221
CN(C)CCCOc1ccc(-c2ccc3ncc4c(c3c2)n(C2CCOCC2)c(=O)n4C)cn1 [AZD0156] + C=CCn1c(=O)c2cnc(Nc3ccc(N4CCN(C)CC4)cc3)nc2n1-c1cccc(C(C)(C)O)n1 [AZD1775] (first compound max 1 µM, partner max 1 µM) | 0.0047

* * *

Overview of recorded Bliss excess for various compounds
tested on: WIL2-NS (Non-Cancerous); test: Bliss excess, mean over the matrix (fraction); higher = more synergy

Compound | Bliss excess
CC1(C)CCC(CN2CCN(c3ccc(C(=O)NS(=O)(=O)c4ccc(NCC5CCOCC5)c([N+](=O)[O-])c4)c(Oc4cnc5[nH]ccc5c4)c3)CC2)=C(c2ccc(Cl)cc2)C1 [Venetoclax] + CS(=O)(=O)CCNCc1ccc(-c2ccc3ncnc(Nc4ccc(OCc5cccc(F)c5)c(Cl)c4)c3c2)o1 [Lapatinib] (first compound max 1 µM, 7x7, partner max 10 µM) | 0.0039
N#Cc1cnc(Nc2cc(NC[C@H]3CNCCO3)c(C(F)(F)F)cn2)cn1 [SRA737] + C=CCn1c(=O)c2cnc(Nc3ccc(N4CCN(C)CC4)cc3)nc2n1-c1cccc(C(C)(C)O)n1 [AZD1775] (first compound max 10 µM, partner max 1 µM) | 0.102
C[C@@H]1COCCN1c1cc(C2([S@](C)(=N)=O)CC2)nc(-c2ccnc3[nH]ccc23)n1 [AZD6738] + C1CC(C1)(C(=O)[O-])C(=O)[O-].N.N.[Pt+2] [Carboplatin] (first compound max 10 µM, 7x7, partner max 10 µM) | -0.0241

* * *

system: SR (Other Blood Carcinomas); experiment: combination Emax (second highest fraction inhibited in the dose matrix, 72 h); higher = more inhibition; extreme values may be limits of the assay

Compound | combination Emax
Cc1nc(Nc2ncc(C(=O)Nc3c(C)cccc3Cl)s2)cc(N2CCN(CCO)CC2)n1 [Dasatinib] + CC(=O)Nc1cccc(-n2c(=O)n(C3CC3)c(=O)c3c(Nc4ccc(I)cc4F)n(C)c(=O)c(C)c32)c1 [Trametinib] (first compound max 2 µM, 7x7, partner max 1 µM) | 0.245
CC1(C)CCC(CN2CCN(c3ccc(C(=O)NS(=O)(=O)c4ccc(NCC5CCOCC5)c([N+](=O)[O-])c4)c(Oc4cnc5[nH]ccc5c4)c3)CC2)=C(c2ccc(Cl)cc2)C1 [Venetoclax] + CCN(CCO)CCCOc1ccc2c(Nc3cc(CC(=O)Nc4cccc(F)c4)[nH]n3)ncnc2c1 [AZD2811] (first compound max 1 µM, 7x7, partner max 1 µM) | 0.946
CN(CCO)CC[C@H](CSc1ccccc1)Nc1ccc(S(=O)(=O)NC(=O)c2ccc(N3CCC([C@@H](O)c4ccccc4-c4ccc(Cl)cc4)CC3)cc2)cc1S(=O)(=O)C(F)(F)F [AZD4320] + Cn1cnc2c(F)c(Nc3ccc(Br)cc3Cl)c(C(=O)NOCCO)cc21 [Selumetinib] (first compound max 1 µM, 7x7, partner max 3 µM) | 0.731

* * *

tested on: HL-60 (Acute Myeloid Leukemia); assay: combination Emax (second highest fraction inhibited in the dose matrix, 72 h); higher = more inhibition; extreme values may be limits of the assay

Molecule | combination Emax
CN(CCO)CC[C@H](CSc1ccccc1)Nc1ccc(S(=O)(=O)NC(=O)c2ccc(N3CCC([C@@H](O)c4ccccc4-c4ccc(Cl)cc4)CC3)cc2)cc1S(=O)(=O)C(F)(F)F [AZD4320] + C=CCn1c(=O)c2cnc(Nc3ccc(N4CCN(C)CC4)cc3)nc2n1-c1cccc(C(C)(C)O)n1 [AZD1775] (first compound max 1 µM, partner max 1 µM) | 0.956
Cc1c2c(nn1C)CSCc1cc(n(C)n1)CSc1cc(c3ccccc3c1)OCCCc1c(C(=O)O)n(C)c3c-2c(Cl)ccc13 [AZD5991] + C[C@@H]1COCCN1C2=NC(=NC(=C2)C3(CC3)[S@](=N)(=O)C)C4=C5C=CNC5=NC=C4 [AZD6738] (first compound max 1 µM, 7x7, partner max 10 µM) | 1
CC(=O)c1c(C)c2cnc(Nc3ccc(N4CCNCC4)cn3)nc2n(C2CCCC2)c1=O [Palbociclib] + Cc1c2c(nn1C)CSCc1cc(n(C)n1)CSc1cc(c3ccccc3c1)OCCCc1c(C(=O)O)n(C)c3c-2c(Cl)ccc13 [AZD5991] (first compound max 10 µM, 7x7, partner max 1 µM) | 0.994
CC1(C)CCC(CN2CCN(c3ccc(C(=O)NS(=O)(=O)c4ccc(NCC5CCOCC5)c([N+](=O)[O-])c4)c(Oc4cnc5[nH]ccc5c4)c3)CC2)=C(c2ccc(Cl)cc2)C1 [Venetoclax] + C[C@@H]1COCCN1C2=NC(=NC(=C2)C3(CC3)[S@](=N)(=O)C)C4=C5C=CNC5=NC=C4 [AZD6738] (first compound max 1 µM, 7x7, partner max 10 µM) | 0.933
COc1nnc2ccc(N3CCC(c4ccc(OCCN5CCN(C)C(=O)[C@H]5C)cc4)CC3)nn12 [AZD5153] + CC1(C)CCC(CN2CCN(c3ccc(C(=O)NS(=O)(=O)c4ccc(NCC5CCOCC5)c([N+](=O)[O-])c4)c(Oc4cnc5[nH]ccc5c4)c3)CC2)=C(c2ccc(Cl)cc2)C1 [Venetoclax] (first compound max 1 µM, 7x7, partner max 1 µM) | 0.99
CC1(C)CCC(CN2CCN(c3ccc(C(=O)NS(=O)(=O)c4ccc(NCC5CCOCC5)c([N+](=O)[O-])c4)c(Oc4cnc5[nH]ccc5c4)c3)CC2)=C(c2ccc(Cl)cc2)C1 [Venetoclax] + CCN(CCO)CCCOc1ccc2c(Nc3cc(CC(=O)Nc4cccc(F)c4)[nH]n3)ncnc2c1 [AZD2811] (first compound max 1 µM, 7x7, partner max 1 µM) | 0.918
Cc1cc2ncnn2cc1Nc1ncc2c(n1)n(C1CCOCC1)c(=O)n2C [AZD7648] + CCN(CCO)CCCOc1ccc2c(Nc3cc(CC(=O)Nc4cccc(F)c4)[nH]n3)ncnc2c1 [AZD2811] (first compound max 10 µM, 7x7, partner max 1 µM) | 0.865
C=CCn1c(=O)c2cnc(Nc3ccc(N4CCN(C)CC4)cc3)nc2n1-c1cccc(C(C)(C)O)n1 [AZD1775] + C[C@@H]1COCCN1C2=NC(=NC(=C2)C3(CC3)[S@](=N)(=O)C)C4=C5C=CNC5=NC=C4 [AZD6738] (first compound max 1 µM, partner max 10 µM) | 0.893
Cc1nc(Nc2ncc(C(=O)Nc3c(C)cccc3Cl)s2)cc(N2CCN(CCO)CC2)n1 [Dasatinib] + CC(=O)Nc1cccc(-n2c(=O)n(C3CC3)c(=O)c3c(Nc4ccc(I)cc4F)n(C)c(=O)c(C)c32)c1 [Trametinib] (first compound max 2 µM, 7x7, partner max 1 µM) | 0.703
CC1(C)CCC(CN2CCN(c3ccc(C(=O)NS(=O)(=O)c4ccc(NCC5CCOCC5)c([N+](=O)[O-])c4)c(Oc4cnc5[nH]ccc5c4)c3)CC2)=C(c2ccc(Cl)cc2)C1 [Venetoclax] + CN(C)CCCOc1ccc(-c2ccc3ncc4c(c3c2)n(C2CCOCC2)c(=O)n4C)cn1 [AZD0156] (first compound max 1 µM, 7x7, partner max 1 µM) | 0.71
COc1cccc(OCCCN)c1-c1cc(Nc2cnc(C#N)cn2)n[nH]1 [Prexasertib] + C=CCn1c(=O)c2cnc(Nc3ccc(N4CCN(C)CC4)cc3)nc2n1-c1cccc(C(C)(C)O)n1 [AZD1775] (first compound max 1 µM, partner max 1 µM) | 0.97
CC(=O)c1c(C)c2cnc(Nc3ccc(N4CCNCC4)cn3)nc2n(C2CCCC2)c1=O [Palbociclib] + CC1(C)CCC(CN2CCN(c3ccc(C(=O)NS(=O)(=O)c4ccc(NCC5CCOCC5)c([N+](=O)[O-])c4)c(Oc4cnc5[nH]ccc5c4)c3)CC2)=C(c2ccc(Cl)cc2)C1 [Venetoclax] (first compound max 10 µM, 7x7, partner max 1 µM) | 0.736
